# System: methicillin-resistant S. aureus (MRSA)
# test description: Growth inhibition assay, MRSA
# Format: cell-based, Staphylococcus aureus
# condition notes: Staphylococcus aureus, MRSA, 24 h, read-out: MRSA IC80, growth (OD 600 nm) relative to control, 24 h, 37 °C
reported metric: IC80

{"columns": ["input smiles", "result"],
 "data": [
  ["O=c1c(Nc2ccc(Cl)cc2)c(NC23CC4CC(CC(C4)C2)C3)c1=O", "> 200 µM"],
  ["O=c1c(Nc2cc(C(F)(F)F)cc(C(F)(F)F)c2)c(NC23CC4CC(CC(C4)C2)C3)c1=O", "200 µM"],
  ["O=c1c(Nc2ccccc2)c(NC23CC4CC(CC(C4)C2)C3)c1=O", "> 200 µM"],
  ["O=c1c(Nc2ccc([N+](=O)[O-])cc2)c(NC23CC4CC(CC(C4)C2)C3)c1=O", "> 200 µM"],
  ["O=c1c(Nc2ccccc2Cl)c(NC23CC4CC(CC(C4)C2)C3)c1=O", "> 200 µM"],
  ["O=c1c(Nc2ccc(Cl)c(Cl)c2)c(NC23CC4CC(CC(C4)C2)C3)c1=O", "> 200 µM"]
]}
